Data provenance is ChEMBL document CHEMBL4513216.

# Test system: Plasmodium berghei
# test-name: Screen against P. berghei liver stage (PbLuc), transformed with Luciferase, at 10uM
# Type: functional, HepG2
# condition-info: tested at 10 uM
Screen size: about 69,000 compounds; about 8,600 (12%) showed an effect of 50% or more. The entries come from a sample that favours strong results as a whole.
measured-attribute: INHIBITION (%)
Use % as the unit, but write only the number.

Write down the reported INHIBITION of Cc1nc(C)c(C(=O)NCC(c2ccccc2Cl)N2CCOCC2)s1 (configuration not stated) , test system: Plasmodium berghei. 62.3

Param item: Cc1cc(C(=O)NCC(c2ccccc2Cl)N2CCOCC2)on1 (configuration not stated) 1.7

Param item: Cc1nc2sccn2c1CN(CCCN(C)C)Cc1ccco1 33.5

Param item: Cc1cc(C)c2cc(CNCc3ccc(C)o3)c3nn(C)c(=O)n3c2c1 54.5

Param item: Cc1ccc(CNC(=O)c2cc(C)n(C)n2)o1 35.75
